- assayed_system: 72 kDa type IV collagenase (Homo sapiens)
- Sequence (P08253 whole entry): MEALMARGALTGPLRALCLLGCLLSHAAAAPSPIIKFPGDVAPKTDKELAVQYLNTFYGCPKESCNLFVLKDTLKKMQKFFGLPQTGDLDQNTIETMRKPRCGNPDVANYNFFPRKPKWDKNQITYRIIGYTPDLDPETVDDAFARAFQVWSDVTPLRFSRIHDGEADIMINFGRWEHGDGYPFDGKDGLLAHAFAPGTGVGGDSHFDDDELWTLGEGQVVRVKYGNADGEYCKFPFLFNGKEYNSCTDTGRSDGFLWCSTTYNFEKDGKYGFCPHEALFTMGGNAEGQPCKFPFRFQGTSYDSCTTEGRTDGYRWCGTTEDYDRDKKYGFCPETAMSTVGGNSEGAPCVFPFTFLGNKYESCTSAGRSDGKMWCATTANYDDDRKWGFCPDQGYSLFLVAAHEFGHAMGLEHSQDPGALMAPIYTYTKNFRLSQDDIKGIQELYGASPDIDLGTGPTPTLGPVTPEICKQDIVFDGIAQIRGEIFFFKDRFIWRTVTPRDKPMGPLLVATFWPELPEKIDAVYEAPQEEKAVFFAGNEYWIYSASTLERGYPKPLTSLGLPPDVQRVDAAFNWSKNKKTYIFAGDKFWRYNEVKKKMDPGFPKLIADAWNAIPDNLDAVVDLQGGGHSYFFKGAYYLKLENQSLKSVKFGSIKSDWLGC
test_readout: IC50 (nM)
Give bare numbers, in nM.

CC(C)ON([C@H](CCNC(=O)c1cccc(C(=O)NCC[C@H](C(=O)NO)N(OC(C)C)S(=O)(=O)c2ccc(-c3ccccc3)cc2)c1)C(=O)NO)S(=O)(=O)c1ccc(-c2ccccc2)cc1; 197

// below: IC50 requested for another compound
QUERY: Please report IC50 with 72 kDa type IV collagenase (Homo sapiens) for item CC(C)ON([C@H](CCNC(=O)CCCNC(=O)c1cccc(C(=O)NCCCC(=O)NCC[C@H](C(=O)NO)N(OC(C)C)S(=O)(=O)c2ccc(-c3ccccc3)cc2)c1)C(=O)NO)S(=O)(=O)c1ccc(-c2ccccc2)cc1 .
RESULT: 9.8
